Entries annotated with measured Kd
# target-system: pre-miR-122 loop
# experiment: NMR titration binding screen against pre-miR-122 loop
# run-conditions: NMR titration experiments
Form entry: value (µM) — number only.

In [3]: df
Out[3]:
                                   compound  numeric_value
0  N=C(N)NCCC[C@H](N)C(=O)Nc1ccc([N+](=O)[O-])cc1 [NC1444, L-arg-p-nitroanilide]           17.6

Quick check: Kd of Nc1c2ccccc2nc2ccccc12 [NC1404, 9-aminoacridine] ?
71.7

Reference for the values: patent US10522239B2
